Maximum % Inhibition values, listed per item
- TEST_SYSTEM: T1, LTα1β2 on the surface of PMA-treated II-23 cells (UniProt P01374 35-205, limits assumed)
- T1 construct: whole, on cells; also called surface LT
- T1 sequence 1: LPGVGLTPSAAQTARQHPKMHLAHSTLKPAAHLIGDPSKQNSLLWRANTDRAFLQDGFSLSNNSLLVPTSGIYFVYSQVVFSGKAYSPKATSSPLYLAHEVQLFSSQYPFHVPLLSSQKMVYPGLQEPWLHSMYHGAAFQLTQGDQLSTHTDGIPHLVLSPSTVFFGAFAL
- T1 sequence 2: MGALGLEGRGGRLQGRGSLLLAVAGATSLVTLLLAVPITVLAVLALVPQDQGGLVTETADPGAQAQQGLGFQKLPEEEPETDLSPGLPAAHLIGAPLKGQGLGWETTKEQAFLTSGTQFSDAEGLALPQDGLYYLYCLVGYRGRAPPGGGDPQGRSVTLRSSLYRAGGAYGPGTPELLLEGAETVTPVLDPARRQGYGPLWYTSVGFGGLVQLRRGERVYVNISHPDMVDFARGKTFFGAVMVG
- ASSAY_PROCEDURE: FACS, inhibition of biotin-LTβR-Ig (1 ug/ml) binding to PMA-treated II-23 cells
READOUT_TYPE: Maximum % Inhibition (%)

# BINDER, READOUT_TYPE, REPORTED_MEASUREMENT
records = [
    ("9B4 (antibody, V domains shown, Murine monoclonal antibody, kappa light chain; also called LT 9B4; LT9B4) VH: QVTLKESGPGILQPSQTLSLTCSFSGFSLSTSGMGVSWIRQPSGKGLEWLAHIYWDDDKRYNPSLRSRLTISKDTSRNQVFLKITSVDTADTATYYCARREGYYGSSFDFDVWGAGTTVTVSS VL: QIVLSQSPAILSASPGEKVTMTCRASSSVSYMIWYQQKPGSSPKPWIYATSSLASGVPTRFSGSGSGTSYSLTISRVEAADAATYYCQQWSYNPLTFGAGTKLELK", "Maximum % Inhibition", 99),
    ("LT102 (P1G8.2) (antibody, IgG1, V domains shown, also called mAb LT102; LT012) VH: EVKLVESGGGLVKPGGSLKLSCAVSGFTFSDYYMYWIRQTPEKRLEWVATIGDGTSYTHYPDSVQGRFTISRDYATNNLYLQMTSLRSEDTALYYCARDLGTGPFAYWGQGTLVTVSA VL: DVLMTQTPRSLPVSLGDQASISCRSSQNIVHSNGNTYLEWYLQKPGQSPKLLIYKVSNRFSGVPDRFSGSGSGTDFTLKISRVEAEDLGVYYCFQGSHFPWTFGGGTKLEIK", "Maximum % Inhibition", 98),
    ("LT107 (P5C4.1) (antibody, V domains shown, Murine monoclonal antibody, kappa light chain; also called mAb LT107) VH: QVQLKQSGPGLVQPSQNLSITCTVSGFSLTNYGIHWIRQPPGKGLEWLGVIWSGGSTDHNAAFISRLSISKDNSKSQVFFTMNSLEVDDTAIYYCARNRAYYRYEGGMDYWGQGTSVTVSS VL: DIKMTQSPSSMYASLGERVTITCKASQDINTYLNWFQQKPGKSPMTLIYRADRLLDGVPSRFSGSGSGQDYSLTISSLEDEDMGIYYCQQYDDFPLTFGAGTKLELK", "Maximum % Inhibition", 80),
]
